Values were extracted from PubChem BioAssay (NCI).

assay: NCI Yeast Anticancer Drug Screen. Data for the rad50 strain (AID 155);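 note: 0% = growth of vehicle-only cultures of the same strain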; conditions: S. cerevisiae rad50 strain growth inhibition; at 33.0 µM; stronger effect = higher value
The panel holds about 79,000 compounds, 15% with a hit somewhere; the sample as a whole holds those more often.

compound	units-text	growth inhibition
CCCCN(CCCC)C(=O)/C=C/c1ccccc1	%	15
CCOc1ccc(NC(=O)C2=C(C)NC(C)=C(C(=O)Nc3ccc(OCC)cc3)C2c2cccc([N+](=O)[O-])c2)cc1	%	39
NC1CCCCC1N.Nc1c(N=Nc2ccc(-c3ccc(N=Nc4cc(S(=O)(=O)[O-])c5ccccc5c4N)cc3)cc2)cc(S(=O)(=O)[O-])c2ccccc12.[OH3+].[OH3+].[Pt+4]	%	89
O=c1nc2n(Cc3ccccc3)c3ccccc3nc-2c(=O)[nH]1	%	-1
CCCC/C=C/C(C)(C(=O)OCC)C(=O)OCC	%	0
CS(=O)(=O)OCCN(CCOS(C)(=O)=O)c1ccc(C=Nc2ccc(-c3csc(COc4ccccc4)n3)cc2)cc1	%	93
Oc1ccc(O)c(Cc2ccccc2)c1	%	99
O=C(O)CCCC1CCCc2c1ccc1ccccc21 (stereo not given)	%	58
Cc1ccc(Cl)cc1NC(=O)OCCN(C)C(=O)Nc1cc(Cl)ccc1C	%	-31
Cc1c(-c2ccccn2)ccc2ccccc12	%	15
CCOC(=O)CC1(C(=O)OCC)c2[nH]c3ccccc3c2CCN1Cc1ccccc1 (stereo not given)	%	5
O=C(Nc1ccc(Cl)cc1)Nc1nnc2nc(C(C(=O)c3cccc([N+](=O)[O-])c3Cl)c3nc4nnc(NC(=O)Nc5ccc(Cl)cc5)n4[nH]c3=O)c(=O)[nH]n12	%	2
CCCCCCC(O)CNCc1ccnc2ccc(OC)cc12 (stereo not given)	%	31
CN(C)CCNC(=O)c1cccc2cc([N+](=O)[O-])ccc12	%	93
COc1cccc(/C=N/C(/N=C/c2cccc(OC)c2O)c2cccc(OC)c2O)c1O	%	87
Cc1cccc(/C=N/NC(=S)N2CCCC2)n1	%	95
CCOC(=O)C1N=[N+](c2ccccc2)C(=O)/C1=C\n1c(=S)[nH]c2ccc([N+](=O)[O-])cc21 (stereo not given)	%	3
Cc1c2cccc(Sc3ccccc3)c2c2c3c(cccc13)[S+](c1ccccc1)C2 (stereo not given)	%	94
COc1cc2cc3c4cc(OC)c(OC)cc4cc[n+]3c(C)c2cc1OC	%	10
COc1cc([C@@H]2c3cc4c(cc3[C@@H](Nc3ccc(NC(=O)c5cc([N+](=O)[O-])cn5C)cc3)[C@H]3COC(=O)[C@H]23)OCO4)cc(OC)c1O	%	92
